Source: ChEMBL document CHEMBL4196200

# Tested On: Vasopressin V1a receptor (Homo sapiens, UniProt P37288)
# Assay Method Text: Displacement of [3H]-AVP from human V1A receptor expressed in human HeLa cell membranes incubated for 2 hrs by scintillation counting method
# Sequence (P37288 whole entry): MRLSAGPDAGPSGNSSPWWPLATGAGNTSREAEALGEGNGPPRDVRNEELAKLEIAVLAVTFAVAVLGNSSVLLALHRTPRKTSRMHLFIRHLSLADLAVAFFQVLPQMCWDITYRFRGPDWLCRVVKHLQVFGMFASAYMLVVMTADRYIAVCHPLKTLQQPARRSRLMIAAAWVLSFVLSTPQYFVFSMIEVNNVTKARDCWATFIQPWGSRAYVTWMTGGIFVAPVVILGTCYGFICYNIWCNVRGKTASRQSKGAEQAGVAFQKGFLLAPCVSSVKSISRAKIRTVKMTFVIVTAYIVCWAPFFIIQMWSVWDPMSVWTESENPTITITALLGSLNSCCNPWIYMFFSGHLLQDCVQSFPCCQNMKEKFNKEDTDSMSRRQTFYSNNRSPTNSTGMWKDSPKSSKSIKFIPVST
pKi: −log10 of the molar value.
Quantity Measured: pKi

[[record]]
structure_smiles = "CC(C)NC(=O)C[C@H]1CCCN(C(=O)c2ccc(N3CCCC3)cc2Cl)c2ccccc21"
test_result = 6.09


====

# Tested On: UniProtKB P70536
# Sequence (P70536 whole entry): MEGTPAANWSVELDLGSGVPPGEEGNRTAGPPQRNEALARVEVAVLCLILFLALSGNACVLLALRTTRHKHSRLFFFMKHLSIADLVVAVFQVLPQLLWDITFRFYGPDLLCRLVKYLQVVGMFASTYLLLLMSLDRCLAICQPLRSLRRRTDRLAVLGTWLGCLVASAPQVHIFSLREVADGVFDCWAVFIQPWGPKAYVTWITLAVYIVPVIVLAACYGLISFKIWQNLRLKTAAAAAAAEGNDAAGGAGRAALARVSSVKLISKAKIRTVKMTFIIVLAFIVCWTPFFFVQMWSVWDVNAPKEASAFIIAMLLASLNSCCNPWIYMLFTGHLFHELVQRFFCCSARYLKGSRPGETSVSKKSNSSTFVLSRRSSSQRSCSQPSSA
# Assay Method Text: Antagonist activity at OXR receptor in rat uterus
pIC50: −log10 of the molar value.
Quantity Measured: pIC50

[[record]]
structure_smiles = "Cc1ccn(-c2ccc(C(=O)N3Cc4cccn4Cc4ccccc43)c(Cl)c2)n1"
quantity_measured = "pIC50"
test_result = 7.26


====

# Tested On: Oxytocin receptor (Homo sapiens, UniProt P30559)
# Sequence (P30559 whole entry): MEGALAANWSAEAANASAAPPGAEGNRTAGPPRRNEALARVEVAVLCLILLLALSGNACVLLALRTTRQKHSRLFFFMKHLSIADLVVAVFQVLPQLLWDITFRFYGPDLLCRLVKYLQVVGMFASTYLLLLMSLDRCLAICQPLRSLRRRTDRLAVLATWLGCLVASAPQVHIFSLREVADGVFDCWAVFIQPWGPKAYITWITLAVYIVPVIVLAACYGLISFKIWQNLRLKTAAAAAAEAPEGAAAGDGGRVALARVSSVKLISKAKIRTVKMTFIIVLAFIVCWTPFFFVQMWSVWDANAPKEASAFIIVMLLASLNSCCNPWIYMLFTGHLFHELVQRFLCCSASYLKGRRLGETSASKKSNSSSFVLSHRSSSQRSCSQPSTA
# Assay Method Text: Displacement of [3H]-oxytocin from OTR receptor in human USMC cell membranes
Quantity Measured: Ki (nM)

[[record]]
structure_smiles = "Cc1occc1C(=O)Nc1ccc(C(=O)N2CCC(F)(F)/C(=C\\C(=O)N3CCC(N4CCCCC4)CC3)c3ccccc32)cc1"
quantity_measured = "Ki"
unit_info = "nM"
test_result = 71


====

# Tested On: Vasopressin V2 receptor (Homo sapiens, UniProt P30518)
# Sequence (P30518 whole entry): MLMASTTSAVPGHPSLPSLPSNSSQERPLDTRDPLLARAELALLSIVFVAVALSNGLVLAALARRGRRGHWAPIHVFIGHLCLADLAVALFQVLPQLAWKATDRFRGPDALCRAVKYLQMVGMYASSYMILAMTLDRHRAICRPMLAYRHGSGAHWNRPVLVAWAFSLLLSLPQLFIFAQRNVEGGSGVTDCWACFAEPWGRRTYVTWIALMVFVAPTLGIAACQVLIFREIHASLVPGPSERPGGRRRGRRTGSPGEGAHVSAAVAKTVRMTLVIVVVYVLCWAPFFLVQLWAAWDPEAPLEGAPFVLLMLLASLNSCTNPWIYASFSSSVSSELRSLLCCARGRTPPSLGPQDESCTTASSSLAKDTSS
# Assay Method Text: Antagonist activity at human V2 receptor expressed in HEK293FT cells assessed as inhibition of AVP-induced calcium release by Aequorin based assay
# Format: functional, cell-based
Quantity Measured: IC50 (µM)

[[record]]
structure_smiles = "COCc1nnc(N2CC(Oc3ccc(F)cc3Cl)C2)n1-c1ccc(OC)nc1"
quantity_measured = "IC50"
test_result = 1.53


====

Measured inhibition, listed per entry.
# Tested On: Vasopressin V1a receptor (Homo sapiens, UniProt P37288)
# Assay Method Text: Antagonist activity at human V1A receptor expressed in CHO cells assessed as inhibition of AVP-induced myo-inositol 1-phosphate accumulation at 1 uM by IP-One assay relative to AVP
# Type: functional, cell-based
# Sequence (P37288 whole entry, looked up): as the sequence (P37288 whole entry) above
Quantity Measured: inhibition (%)

[[record]]
compound = "Cc1ccn(-c2ccc(C(=O)N3CCCC(=O)c4ccccc43)cc2)n1"
tested_on = "Vasopressin V1a receptor (Homo sapiens, UniProt P37288)"
prefix_operator = "="
test_result = 19

[[record]]
compound = "Cc1ccn(-c2ccc(C(=O)N3CCCC(=O)c4ccccc43)c(Cl)c2)n1"
tested_on = "Vasopressin V1a receptor (Homo sapiens, UniProt P37288)"
prefix_operator = "<"
test_result = 10

[[record]]
compound = "Cc1ccn(-c2ccc(C(=O)N3CCCC(N(C)C)c4ccccc43)c(Cl)c2)n1 (stereo not given)"
tested_on = "Vasopressin V1a receptor (Homo sapiens, UniProt P37288)"
prefix_operator = "<"
test_result = 10

[[record]]
compound = "Cc1ccn(-c2ccc(C(=O)N3CCCC(O)c4ccccc43)cc2)n1 (stereo not given)"
tested_on = "Vasopressin V1a receptor (Homo sapiens, UniProt P37288)"
prefix_operator = "="
test_result = 69

[[record]]
compound = "Cc1ccn(-c2ccc(C(=O)N3CCCC(N(C)C)c4ccccc43)cc2)n1 (stereo not given)"
tested_on = "Vasopressin V1a receptor (Homo sapiens, UniProt P37288)"
prefix_operator = "="
test_result = 15

[[record]]
compound = "Cc1ccn(-c2ccc(C(=O)N3CCCCCC3)c(Cl)c2)n1"
tested_on = "Vasopressin V1a receptor (Homo sapiens, UniProt P37288)"
prefix_operator = "<"
test_result = 10

[[record]]
compound = "Cc1ccn(-c2ccc(C(=O)N3Cc4cccn4Cc4ccccc43)c(Cl)c2)n1"
tested_on = "Vasopressin V1a receptor (Homo sapiens, UniProt P37288)"
prefix_operator = "="
test_result = 33

[[record]]
compound = "C[N+](C)(C)c1ccc(C(=O)N2CCCCc3ccccc32)cc1"
tested_on = "Vasopressin V1a receptor (Homo sapiens, UniProt P37288)"
prefix_operator = "="
test_result = 15

[[record]]
compound = "Nc1ccc(C(=O)N2CCCCc3ccccc32)cc1"
tested_on = "Vasopressin V1a receptor (Homo sapiens, UniProt P37288)"
prefix_operator = "="
test_result = 37

[[record]]
compound = "Cc1ccn(-c2ccc(C(=O)N3CCCC(O)c4ccccc43)c(Cl)c2)n1 (stereo not given)"
tested_on = "Vasopressin V1a receptor (Homo sapiens, UniProt P37288)"
prefix_operator = "="
test_result = 26

